From: ChEMBL document CHEMBL4014322

target: PI3-kinase p110-delta/p85-alpha (Homo sapiens, UniProt O00329); experiment: Inhibition of human recombinant full length N-terminal His6-tagged PI3K p110delta/p85alpha expressed in baculovirus infected Sf9 insect cells using PI:PS as substrate after 60 mins by ADP-Glo assay
Sequence (P27986 whole entry, one chain of several): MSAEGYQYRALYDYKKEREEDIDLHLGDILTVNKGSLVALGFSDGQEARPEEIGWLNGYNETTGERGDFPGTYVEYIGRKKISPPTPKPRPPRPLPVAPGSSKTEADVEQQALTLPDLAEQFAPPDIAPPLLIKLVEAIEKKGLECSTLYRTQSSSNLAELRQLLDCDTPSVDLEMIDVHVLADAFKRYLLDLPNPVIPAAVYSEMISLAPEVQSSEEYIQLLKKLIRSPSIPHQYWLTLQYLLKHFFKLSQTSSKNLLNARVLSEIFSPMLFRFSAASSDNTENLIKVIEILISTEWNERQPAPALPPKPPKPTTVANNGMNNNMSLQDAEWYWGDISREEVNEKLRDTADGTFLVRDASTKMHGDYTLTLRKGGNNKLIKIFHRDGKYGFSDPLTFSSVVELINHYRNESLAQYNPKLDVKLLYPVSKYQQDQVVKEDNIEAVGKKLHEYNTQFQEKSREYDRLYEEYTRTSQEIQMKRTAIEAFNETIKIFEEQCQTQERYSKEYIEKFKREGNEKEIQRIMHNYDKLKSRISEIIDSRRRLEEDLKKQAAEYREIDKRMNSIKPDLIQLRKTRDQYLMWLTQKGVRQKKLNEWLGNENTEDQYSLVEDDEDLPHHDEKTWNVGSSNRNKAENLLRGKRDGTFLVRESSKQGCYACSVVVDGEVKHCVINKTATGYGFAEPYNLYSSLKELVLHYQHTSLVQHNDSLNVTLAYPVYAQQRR
pKi: −log10 of the molar value.
Output YES for pKi not less than 8; output NO otherwise.

{"columns": ["Molecule", "Class name"],
 "data": [
  ["Cc1ccccc1-n1c([C@H](C)n2cnc3c(N)ncnc32)nc2cccc(C)c2c1=O (stereo in doubt; form 2)", "YES"],
  ["Cc1cccc2nc(Cn3cnc4c(N)ncnc43)n(-c3ccccc3)c(=O)c12", "NO"],
  ["Cc1ccccc1-n1c([C@H](C)n2cnc3c(N)ncnc32)nc2cccc(C)c2c1=O (stereo in doubt; form 1)", "YES"],
  ["Cc1ccccc1-n1c([C@@H](C)n2cnc3c(N)ncnc32)nc2cccc(C)c2c1=O (stereo in doubt; form 1)", "NO"]
]}

---

Biological target: Phosphatidylinositol 4,5-bisphosphate 3-kinase catalytic subunit delta isoform (Homo sapiens)
Sequence (O00329 whole entry): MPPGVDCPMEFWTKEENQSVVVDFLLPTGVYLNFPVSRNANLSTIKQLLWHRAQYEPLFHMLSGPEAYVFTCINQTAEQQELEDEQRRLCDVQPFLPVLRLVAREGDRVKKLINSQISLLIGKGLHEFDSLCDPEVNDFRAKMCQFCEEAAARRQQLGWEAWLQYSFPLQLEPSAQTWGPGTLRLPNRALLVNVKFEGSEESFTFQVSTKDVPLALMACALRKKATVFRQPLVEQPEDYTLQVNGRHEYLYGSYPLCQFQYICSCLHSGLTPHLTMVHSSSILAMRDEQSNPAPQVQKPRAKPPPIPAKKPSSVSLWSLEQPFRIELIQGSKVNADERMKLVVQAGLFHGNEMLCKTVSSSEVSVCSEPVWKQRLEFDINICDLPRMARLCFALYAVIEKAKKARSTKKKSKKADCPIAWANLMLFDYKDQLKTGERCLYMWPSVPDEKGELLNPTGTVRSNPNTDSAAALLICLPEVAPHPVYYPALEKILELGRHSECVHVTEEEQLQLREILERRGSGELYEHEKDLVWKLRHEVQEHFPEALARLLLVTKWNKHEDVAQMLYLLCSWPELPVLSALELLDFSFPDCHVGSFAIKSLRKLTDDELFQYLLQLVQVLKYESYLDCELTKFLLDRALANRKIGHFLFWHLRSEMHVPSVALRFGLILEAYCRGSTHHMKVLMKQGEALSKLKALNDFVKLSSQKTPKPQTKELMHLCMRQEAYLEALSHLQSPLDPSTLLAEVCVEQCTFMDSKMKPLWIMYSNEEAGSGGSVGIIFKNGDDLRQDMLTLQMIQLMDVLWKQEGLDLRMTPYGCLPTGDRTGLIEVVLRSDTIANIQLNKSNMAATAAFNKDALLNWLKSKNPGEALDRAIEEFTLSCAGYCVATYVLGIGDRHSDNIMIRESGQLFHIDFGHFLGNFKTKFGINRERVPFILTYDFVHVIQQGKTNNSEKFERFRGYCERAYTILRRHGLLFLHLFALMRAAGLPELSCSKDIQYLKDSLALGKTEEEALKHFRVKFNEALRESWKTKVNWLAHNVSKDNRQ

{"columns": ["Compound", "Result unit", "IC50"],
 "data": [
  ["Cc1ccccc1-n1c([C@H](C)n2cnc3c(N)ncnc32)nc2cccc(C)c2c1=O (stereo in doubt; form 1)", "nM", 6.31],
  ["Cc1ccccc1-n1c([C@H](C)n2cnc3c(N)ncnc32)nc2cccc(C)c2c1=O (stereo in doubt; form 2)", "nM", 1.26],
  ["Cc1cccc2nc(Cn3cnc4c(N)ncnc43)n(-c3ccccc3)c(=O)c12", "nM", 50.1]
]}
